Hello, the source for this data is paper PMC7383607, in case you need it.

# study_system: TcPFK (Trypanosoma cruzi phosphofructokinase) (Trypanosoma cruzi, UniProt Q4E657)
# Construct: recombinant, E. coli, purified; N-terminal His6 tag (given for SPR); glycosomal homotetramer
# Sequence (Q4E657 whole entry): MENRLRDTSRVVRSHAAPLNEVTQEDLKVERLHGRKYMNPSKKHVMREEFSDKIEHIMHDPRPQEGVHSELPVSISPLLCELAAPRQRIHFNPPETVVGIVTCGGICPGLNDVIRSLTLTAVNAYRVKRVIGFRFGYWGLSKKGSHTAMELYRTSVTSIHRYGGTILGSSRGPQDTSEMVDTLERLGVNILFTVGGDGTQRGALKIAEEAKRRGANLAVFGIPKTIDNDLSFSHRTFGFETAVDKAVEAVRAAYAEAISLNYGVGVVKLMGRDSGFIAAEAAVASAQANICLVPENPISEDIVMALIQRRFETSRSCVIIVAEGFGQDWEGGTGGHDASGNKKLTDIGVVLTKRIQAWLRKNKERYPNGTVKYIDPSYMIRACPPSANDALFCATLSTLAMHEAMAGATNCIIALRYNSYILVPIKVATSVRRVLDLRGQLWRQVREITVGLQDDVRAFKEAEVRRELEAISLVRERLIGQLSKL
# test_description: SPR steady state, His6-PFK captured on Ni-NTA chip
pKd: −log10 of the molar value.

[
  {
    "structure_as_smiles": "Nc1ncnc2c1ncn2[C@@H]1O[C@H](COP(=O)(O)OP(=O)(O)OP(=O)(O)O)[C@@H](O)[C@H]1O",
    "pKd": 4.45
  },
  {
    "structure_as_smiles": "Nc1ncnc2c1ncn2[C@@H]1O[C@H](COP(=O)(O)OP(=O)(O)O)[C@@H](O)[C@H]1O",
    "pKd": 3.14
  },
  {
    "structure_as_smiles": "Nc1ncnc2c1ncn2[C@@H]1O[C@H](COP(=O)(O)O)[C@@H](O)[C@H]1O",
    "pKd": 2.98
  }
]

* * *

# study_system: TbPFK (Trypanosoma brucei phosphofructokinase) (Trypanosoma brucei)
# Construct: recombinant, E. coli, purified; N-terminal His6 tag (for SPR and reaction order tests); tetramer of 53-kDa subunits
# Sequence (O15648 whole entry): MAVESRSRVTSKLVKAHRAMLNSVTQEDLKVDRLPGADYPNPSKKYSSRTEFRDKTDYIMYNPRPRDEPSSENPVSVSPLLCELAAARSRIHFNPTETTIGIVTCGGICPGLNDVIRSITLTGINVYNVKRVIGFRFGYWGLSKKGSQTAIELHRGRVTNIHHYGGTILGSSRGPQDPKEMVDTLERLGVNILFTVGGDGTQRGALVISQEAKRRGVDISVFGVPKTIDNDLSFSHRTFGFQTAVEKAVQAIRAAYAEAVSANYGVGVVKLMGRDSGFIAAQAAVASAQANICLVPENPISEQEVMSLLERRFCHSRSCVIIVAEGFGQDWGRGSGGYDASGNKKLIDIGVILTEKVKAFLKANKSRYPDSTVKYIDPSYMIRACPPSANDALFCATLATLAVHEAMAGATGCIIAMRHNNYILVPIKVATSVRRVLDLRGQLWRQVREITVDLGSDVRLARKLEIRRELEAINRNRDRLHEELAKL
# test_description: SPR steady state, His6-PFK captured on Ni-NTA chip
pKd: −log10 of the molar value.
Listing: pKd of selected compounds
assay_metric: pKd

[
  {
    "structure_as_smiles": "Nc1ncnc2c1ncn2[C@@H]1O[C@H](COP(=O)(O)OP(=O)(O)OP(=O)(O)O)[C@@H](O)[C@H]1O",
    "reading": 4.80
  },
  {
    "structure_as_smiles": "Nc1ncnc2c1ncn2[C@@H]1O[C@H](COP(=O)(O)O)[C@@H](O)[C@H]1O",
    "reading": 3.33
  },
  {
    "structure_as_smiles": "Nc1ncnc2c1ncn2[C@@H]1O[C@H](COP(=O)(O)OP(=O)(O)O)[C@@H](O)[C@H]1O",
    "reading": 3.25
  }
]

* * *

# study_system: LiPFK (Leishmania infantum phosphofructokinase) (Leishmania infantum)
# Construct: recombinant, E. coli, purified; N-terminal His6 tag (given for SPR); glycosomal homotetramer
# Sequence (A4I4W5 1-486): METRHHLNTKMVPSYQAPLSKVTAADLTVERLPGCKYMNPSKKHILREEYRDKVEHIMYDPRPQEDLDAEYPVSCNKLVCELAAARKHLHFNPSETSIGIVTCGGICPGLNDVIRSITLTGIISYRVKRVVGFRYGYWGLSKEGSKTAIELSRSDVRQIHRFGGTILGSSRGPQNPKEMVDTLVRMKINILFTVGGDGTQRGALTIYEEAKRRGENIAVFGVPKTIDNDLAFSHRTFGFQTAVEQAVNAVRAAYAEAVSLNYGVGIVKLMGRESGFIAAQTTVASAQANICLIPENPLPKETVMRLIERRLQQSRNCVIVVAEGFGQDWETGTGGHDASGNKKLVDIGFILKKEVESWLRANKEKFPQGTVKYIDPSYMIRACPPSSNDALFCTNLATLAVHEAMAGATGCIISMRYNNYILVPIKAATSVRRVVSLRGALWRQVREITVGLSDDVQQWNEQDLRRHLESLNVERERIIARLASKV
# test_description: SPR steady state, His6-PFK captured on Ni-NTA chip
assay_metric: Kd

[
  {
    "compound": "Nc1ncnc2c1ncn2[C@@H]1O[C@H](COP(=O)(O)OP(=O)(O)OP(=O)(O)O)[C@@H](O)[C@H]1O [ATP]",
    "assay_metric": "Kd",
    "reading": "16.8 µM"
  },
  {
    "compound": "Nc1ncnc2c1ncn2[C@@H]1O[C@H](COP(=O)(O)O)[C@@H](O)[C@H]1O [AMP]",
    "assay_metric": "Kd",
    "reading": "2300 µM"
  },
  {
    "compound": "Nc1ncnc2c1ncn2[C@@H]1O[C@H](COP(=O)(O)OP(=O)(O)O)[C@@H](O)[C@H]1O [ADP]",
    "assay_metric": "Kd",
    "reading": "160 µM"
  }
]
